# measured target: DCN1 (DCUND1) protein PONY domain (Homo sapiens (Human), UniProt Q96GG9)
# Sequence (Q96GG9 60-248): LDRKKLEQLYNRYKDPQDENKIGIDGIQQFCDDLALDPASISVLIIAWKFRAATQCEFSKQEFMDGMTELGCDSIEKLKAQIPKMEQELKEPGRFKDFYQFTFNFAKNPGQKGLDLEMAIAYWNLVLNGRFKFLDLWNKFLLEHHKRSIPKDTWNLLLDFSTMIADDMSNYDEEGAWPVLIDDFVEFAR
# assay notes: TR-FRET assay, DCN1 binding with FAM-labeled probe
# settings: read-out: TR FRET IC50 1 hr; 1 hr after treatment with compound
pIC50: −log10 of the molar value.
measured endpoint: pIC50

Recorded results for 2 compounds are shown here.
query smiles	pIC50
CCN1C(=O)[C@@H](NC(=O)c2cccc(C(F)(F)F)c2)[C@@H](C2CC2)c2c(C(=O)N3CC[C@H](OC)[C@H]3C#N)nn(C3CCOCC3)c21	≥ 6.70
CCN1C(=O)[C@@H](NC(=O)c2cccc(C(F)(F)F)c2)[C@@H](c2ccc(F)cc2)c2c(CN(C#N)CCCN3CCOCC3)nn(-c3ccccc3)c21	≥ 6.70

Request: Consider the compound CCN1C(=O)[C@@H](NC(=O)c2cccc(C(F)(F)F)c2)[C@@H](c2ccc(F)cc2)c2c(C(=O)N3CCC[C@H]3C#N)nn(-c3cccc(OCCN4CCN(C5COC5)CC4)c3)c21 and give its recorded pIC50.
Response: ≥ 6.70

From: patent US20250163057A1
